- System: Escherichia coli IAI1
- EXPERIMENT NOTES: growth (OD595) fold change vs plate DMSO controls (fold change (ratio)); higher = more growth
- SETUP CONDITIONS: incubation time: 27 h, anaerobic, 37 °C
Counter-ions that a name gives are not always drawn.
MEASUREMENT LABEL: growth
Reply with the value as a number alone.

Examples with their reported growth follow.
>>> measured_result("CCCCN(CCCC)CCC(O)c1cc2c(Cl)cc(Cl)cc2c2cc(C(F)(F)F)ccc12 (centres undefined) [Halofantrine hydrochloride] (20 µM)")
1.23
>>> measured_result("C[C@@H]1CCC[C@H](C)N1NC(=O)c1ccc(Cl)c(S(N)(=O)=O)c1 [Clopamide] (20 µM)")
0.983
>>> measured_result("CN1CCN2c3ccccc3Cc3ccccc3C2C1 (centres undefined) [Mianserine hydrochloride] (20 µM)")
0.996

Continue with the next compound.
-- ask So what does the record say about growth for COc1cc([S+](C)[O-])ccc1-c1nc2cccnc2[nH]1 (centres undefined) [Sulmazole] (20 µM) ?
-- reply 0.999
